meta.source: paper PMC8152350

assay: in vitro; format: cell-based, mouse; conditions: mouse, NIH/3T3, depending on incubation time (24-72 h); read-out: CC50 of betulin in SRB assay, range over incubation times
Parameter measured: CC50

>>> df
                              sample_smiles      endpoint_value
0  C=C(C)[C@@H]1CC[C@]2(CO)CC[C@]3(C)[C@H](CC[C@@H]4[C@@]5(C)CC[C@H](O)C(C)(C)[C@@H]5CC[C@]43C)[C@@H]12  3.76 to 10.9 µg/mL

* * *

Experiment: Solubility of betulin in DMSO
Type: physicochemical
Conditions: organic solvent or mixture, thermodynamic from solid, room temperature, read-out: maximum solubility of betulin in DMSO
Procedure: We were able to dissolve 5000 µg of betulin in 1 mL of DMSO, although it required heating, and the solution remained unstable. After mixing with the cell culture medium, the solution immediately became slightly turbid. […]
Parameter measured: solubility (µg/mL)

                                   molecule  unit_name  endpoint_value
0  C=C(C)[C@@H]1CC[C@]2(CO)CC[C@]3(C)[C@H](CC[C@@H]4[C@@]5(C)CC[C@H](O)C(C)(C)[C@@H]5CC[C@]43C)[C@@H]12 [betulin, Betulin]      µg/mL            2500
